These entries and their values trace back to PubChem BioAssay AID493105.

# inhibition values compiled below
tested on: emLYPLA2; test: LYPLA1 and LYPLA2 inhibitors, biochemical, gel-based ABPP, fluorescence, recombinant and endogenous enzyme (AID 493105); details: fluorescent probe labeling, membrane fraction, at 20 µM, stronger effect = higher value
endpoint: inhibition (%)

>  <compound>
COc1ccc(-n2c(C)c([N+](=O)[O-])c3ccc(O)c(CN4CCCCC4)c32)cc1

>  <readout_unit>
%

>  <recorded_result>
0

$$$$
>  <compound>
CCOc1ccc(NC(=S)NC(=O)c2c(Br)cnn2C)c([N+](=O)[O-])c1

>  <readout_unit>
%

>  <recorded_result>
16

$$$$
>  <compound>
CC(=O)c1ccc(N2CCN(C(=O)c3cccc(Oc4ccccc4)c3)CC2)cc1

>  <readout_unit>
%

>  <recorded_result>
0

$$$$
>  <compound>
O=C(NCCNC(=O)c1cc(OCC(F)(F)F)ccc1OCC(F)(F)F)Nc1cccc(C(F)(F)F)c1

>  <readout_unit>
%

>  <recorded_result>
7

$$$$
>  <compound>
O=C(CCCCn1c(=O)[nH]c2ccccc2c1=O)N1CCN(c2cccc(C(F)(F)F)c2)CC1

>  <readout_unit>
%

>  <recorded_result>
0

$$$$
>  <compound>
Cc1[nH]c2ccccc2c1C(=O)CN1CCN(C/C=C/c2ccccc2)CC1

>  <readout_unit>
%

>  <recorded_result>
0

$$$$
>  <compound>
Nc1nc(NCc2ccco2)nc(N2CCN(Cc3ccccc3)CC2)c1[N+](=O)[O-]

>  <readout_unit>
%

>  <recorded_result>
1

$$$$
>  <compound>
COc1ccc(/C=C2/Sc3ccc(C(=O)NCCCN4CCOCC4)cc3NC2=O)cc1OC

>  <readout_unit>
%

>  <recorded_result>
0

$$$$
>  <compound>
COc1ccc(N2CCN(C(=O)C3CCC(Cn4c(=S)[nH]c5ccccc5c4=O)CC3)CC2)cc1 (centres undefined)

>  <readout_unit>
%

>  <recorded_result>
67

$$$$
